Just for reference, the supplement of paper PMC10567573 is where these values come from.

B1: PCMTD2 (parent)
chain: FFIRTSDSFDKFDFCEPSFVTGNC

variants of: B1; test: protein stability index of a GFP-peptide fusion (GPS, HEK-293T) (PSI 1-6); higher = more stable; settings: c terminus: a fixed tail appended;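 further: lentivirally expressed fusions sorted by FACS into six bins by GFP to DsRed ratio, PSI derived from sequencing read proportions per bin multiplied by bin number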
# binarize protein stability index: threshold 2 inclusive, high side 1, low side 0

FFIRTSNSFDKFDFCEPSFVTGNC [D7N]: 1
FFIRTSDSFDKVDFCEPSFVTGNC [F12V]: 1
FFIRTSDSFDKFDFAEPSFVTGNC [C15A]: 1
FFIRTHDSFDKFDFCEPSFVTGNC [S6H]: 1
FTIRTSDSFDKFDFCEPSFVTGNC [F2T]: 0
FFIRTSDSFDKFKFCEPSFVTGNC [D13K]: 1
FPIRTSDSFDKFDFCEPSFVTGNC [F2P]: 1
FFIWTSDSFDKFDFCEPSFVTGNC [R4W]: 1
FFIRHSDSFDKFDFCEPSFVTGNC [T5H]: 1
FFIRTSDMFDKFDFCEPSFVTGNC [S8M]: 0
